Target: recombinant human MAO-B (hMAOB) (Homo sapiens)
Sequence (P27338 whole entry): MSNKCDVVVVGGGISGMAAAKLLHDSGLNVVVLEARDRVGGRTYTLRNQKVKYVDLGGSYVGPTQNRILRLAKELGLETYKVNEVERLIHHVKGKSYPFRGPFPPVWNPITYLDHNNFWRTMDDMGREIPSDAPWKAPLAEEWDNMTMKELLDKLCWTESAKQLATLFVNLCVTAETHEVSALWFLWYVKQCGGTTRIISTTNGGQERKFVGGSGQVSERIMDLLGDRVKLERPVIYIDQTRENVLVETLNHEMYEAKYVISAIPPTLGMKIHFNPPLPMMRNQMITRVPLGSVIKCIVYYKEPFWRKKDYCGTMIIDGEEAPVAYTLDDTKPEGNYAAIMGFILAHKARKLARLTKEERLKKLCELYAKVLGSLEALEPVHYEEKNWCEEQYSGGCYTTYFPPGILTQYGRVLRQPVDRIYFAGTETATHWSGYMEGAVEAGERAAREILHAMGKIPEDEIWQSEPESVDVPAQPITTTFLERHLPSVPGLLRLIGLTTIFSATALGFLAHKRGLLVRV
Experiment: biochemical
Conditions: means ± SD of three experiments
measuredProperty: IC50

Example cases with answers are listed next.
compound: Cc1cc(-n2c(C)ccc2C)c2ccccc2n1 [EM-DC-13]
IC50: 0.41 µM

compound: Cc1ccc(C)n1CC(C)c1ccc(O)cc1 (stereo not shown) [EM-DC-11]
IC50: > 100 µM

compound: Cc1ccc(C)n1-c1ccc(O)c(C(=O)O)c1 [EM-DC-18]
IC50: > 100 µM

Attention now turns to another entry.
Fill in IC50 for Cc1ccc(C)n1CC(O)c1ccc(O)cc1 (stereo not shown) [EM-DC-10] tested with recombinant human MAO-B (hMAOB) (Homo sapiens).
> 100 µM

====

Target: AChE (Electrophorus electricus, UniProt O42275)
Construct: purchased Sigma-Aldrich, Hamburg, Germany
Sequence (O42275 24-633): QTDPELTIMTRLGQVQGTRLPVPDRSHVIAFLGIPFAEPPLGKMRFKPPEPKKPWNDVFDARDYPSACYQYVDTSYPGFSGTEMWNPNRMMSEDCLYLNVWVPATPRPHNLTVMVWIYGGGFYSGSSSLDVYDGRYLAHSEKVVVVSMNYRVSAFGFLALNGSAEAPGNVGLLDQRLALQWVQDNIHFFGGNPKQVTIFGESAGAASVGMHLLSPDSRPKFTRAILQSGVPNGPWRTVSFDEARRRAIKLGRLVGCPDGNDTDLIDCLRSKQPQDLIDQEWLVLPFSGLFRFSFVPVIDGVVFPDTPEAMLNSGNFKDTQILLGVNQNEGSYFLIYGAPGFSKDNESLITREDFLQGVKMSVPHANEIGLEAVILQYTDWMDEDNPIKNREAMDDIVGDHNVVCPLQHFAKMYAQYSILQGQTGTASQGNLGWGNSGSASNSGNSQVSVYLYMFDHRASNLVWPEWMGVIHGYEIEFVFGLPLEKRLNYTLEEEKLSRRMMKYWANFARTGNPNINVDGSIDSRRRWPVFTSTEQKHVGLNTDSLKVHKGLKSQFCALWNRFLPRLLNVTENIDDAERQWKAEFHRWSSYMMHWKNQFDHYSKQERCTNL
Experiment: biochemical
Format: biochemical
Details: 200 µM compound
Decision: inhibition at 200 µM >= 20% yields 1, all other cases yield -1.

Consider the following illustrative entries.
molecule: Cc1ccc(C)n1C(C)(C)CO [EM-DC-14]
qualitativeLabel: 1

molecule: Cc1ccc(C)n1CCc1ccc(O)cc1 [EM-DC-9]
qualitativeLabel: 1

molecule: Cc1ccc(C)n1C(Cc1ccc(O)c(O)c1)C(=O)O (stereo not shown) [EM-DC-23]
qualitativeLabel: 1

molecule: Cc1ccc(C)n1C(CO)C(=O)O (stereo not shown) [EM-DC-22]
qualitativeLabel: -1

molecule: Cc1ccc(C)n1C(Cc1cnc[nH]1)C(=O)O (stereo not shown) [EM-DC-19]
qualitativeLabel: 1

molecule: Cc1ccc(C)n1CC(O)c1ccc(O)cc1 (stereo not shown) [EM-DC-10]
qualitativeLabel: 1

molecule: Cc1ccc(C)n1CCc1ccccc1 [EM-DC-7]
qualitativeLabel: -1

molecule: Cc1ccc(C)n1-c1ccc(C(=O)O)cc1 [EM-DC-2]
qualitativeLabel: 1

molecule: Cc1ccc(C)n1CCc1ccc(Cl)cc1 [EM-DC-8]
qualitativeLabel: 1

molecule: Cc1ccc(C)n1CCN1CCOCC1 [EM-DC-16]
qualitativeLabel: 1

Exam item: decide whether the reported inhibition at 200 µM for Cc1ccc(C)n1-c1ccc(CC(=O)O)cc1 [EM-DC-27] is at least 20%.
1

Entry Cc1ccc(C)n1-c1ccc(O)cc1 [EM-DC-1, 4-(2,5-dimethyl-1H-pyrrol-1-yl)phenol] : is its inhibition at 200 µM no less than 20%?
-1

Check if inhibition at 200 µM >= 20% (inclusive). Item: Cc1ccc(C)n1-c1ccc(C(=O)NCC(=O)O)cc1 [EM-DC-24]
1

Would you say Cc1ccc(C)n1-c1ccc(O)c(C(=O)O)c1 [EM-DC-18] shows inhibition at 200 µM at minimum 20%?
-1

Please indicate if the recorded inhibition at 200 µM for Cc1ccc(C)n1-c1ccccc1Br [EM-DC-3] meets or exceeds 20%.
-1

I'd appreciate it if you could say whether CCC(C(=O)O)n1c(C)ccc1C (stereo not shown) [EM-DC-21] has inhibition at 200 µM at least equal to 20%.
-1

Entry CCC(C)Cn1c(C)ccc1C (stereo not shown) [EM-DC-26] : is its inhibition at 200 µM no less than 20%?
-1

Is it the case that Cc1ccc(C)n1C(Cc1ccc(O)cc1)C(=O)O (stereo not shown) [EM-DC-20] has inhibition at 200 µM reaching or exceeding 20%?
-1

inhibition at 200 µM >= 20% for Cc1ccc(C)n1C1CCN(Cc2ccccc2)CC1 [EM-DC-25] ?
1

Is it the case that Cc1ccc(C)n1CC(C)c1ccc(O)cc1 (stereo not shown) [EM-DC-11] has inhibition at 200 µM reaching or exceeding 20%?
1

Could you please find out whether Cc1ccc(C)n1-c1ccc2c(c1)OCO2 [EM-DC-6] has inhibition at 200 µM that meets 20% or exceeds it?
1

Is inhibition at 200 µM at least 20%? Consider COc1ccc(C)cc1-n1c(C)ccc1C [EM-DC-5]
1

Hey, just so you know, these numbers are from paper PMC12655551.
